# assay-system: Cytochrome P450 2C9 (Homo sapiens) (UniProt P11712)
# Sequence (P11712 whole entry, looked up): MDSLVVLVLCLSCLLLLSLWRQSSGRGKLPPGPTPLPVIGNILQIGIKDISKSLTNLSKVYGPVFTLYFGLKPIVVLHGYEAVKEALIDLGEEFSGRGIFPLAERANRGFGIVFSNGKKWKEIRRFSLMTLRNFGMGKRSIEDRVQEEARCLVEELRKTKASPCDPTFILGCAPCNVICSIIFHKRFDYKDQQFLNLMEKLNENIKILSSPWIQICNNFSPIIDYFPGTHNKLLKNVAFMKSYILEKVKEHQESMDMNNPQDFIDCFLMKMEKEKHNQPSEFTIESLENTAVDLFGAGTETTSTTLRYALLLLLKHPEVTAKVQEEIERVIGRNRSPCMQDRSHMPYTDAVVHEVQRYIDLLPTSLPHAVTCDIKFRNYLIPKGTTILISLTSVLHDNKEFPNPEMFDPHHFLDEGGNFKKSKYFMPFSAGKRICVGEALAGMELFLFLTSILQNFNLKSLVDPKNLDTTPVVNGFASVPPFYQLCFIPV
# assay-info: Cytochrome P450 Family 2 Subfamily C Member 9 (CYP2C9) small molecule antagonists: luciferase reporter qHTS assay (AID 1671198); also: nearly all actives have a fitted effect of over 50% in size
# setup-conditions: P450-Glo CYP2C9 enzyme assay, luciferin luminescence; series mostly up to 53 µM
Inconclusive results are not listed. Active and inactive are the calls of the source. Calls follow the shape of the dose curve; as a rule, active = well fitted inhibition curve with a large enough effect in the repeat runs; inconclusive = weak or mixed curves; inactive = no such curve, though single readings can be large or run the other way.
Answer with one of the outcomes given here: active, inactive

[O-][n+]1ccccc1SSc1cccc[n+]1[O-]; active
O=c1cccccc1O; inactive
NC(=O)N1C(=O)C(C(=O)c2cc(Cl)cs2)c2cc(F)c(Cl)cc21 (centres undefined); active
CCN(Cc1cccnc1)C(=O)c1cccc(Cl)c1[C@]1(C)C(=O)N(Cc2ccc(OC)cc2OC)c2ccc(Cl)cc21; active

What call does the record list for O=C(Oc1cccc2cccnc12)c1ccccc1 ?
inactive

I'd appreciate the recorded outcome for O=C(OCC(COC(=O)c1ccccc1)(COC(=O)c1ccccc1)COC(=O)c1ccccc1)c1ccccc1 from this test.
active

State the result this test recorded for O=c1c(-c2ccccc2)c1-c1ccccc1 .
active

Record request — test call for C1CCCC1
inactive

* * *

# assay-info: qHTS assay to identify small molecule antagonists of the farnesoid-X-receptor (FXR) signaling pathway - cell viability counter screen (AID 743221); also: nearly all actives have a fitted effect of over 50% in size
# setup-conditions: FXR-bla HEK293T viability, CellTiter-Glo luminescence, 16 h; series mostly up to 62.6 µM
Inconclusive results are not listed. Calls of active or inactive are those of the source. The call rests on the fitted dose curve; in most records, active means well fitted cell-killing curve with a large enough effect in the repeat runs (not every such curve was filed as active); inconclusive means weak or mixed curves, or effect the other way; inactive means no such curve, though single readings can be large or run the other way.
recorded-metric: outcome

COc1cccc(N)c1; inactive
CCCCCCC[N+](CC)(CC)CCCCc1ccc(Cl)cc1; inactive
Cn1cc(C(=O)[C@@H]2CCc3nc[nH]c3C2)c2ccccc21; inactive

* * *

# assay-info: qHTS assay to identify small molecule antagonists of the estrogen receptor beta (ER-beta) signaling pathway - cell viability counter screen (AID 1259382);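 also: HEK293T cells carrying ER-beta-UAS-bla reporter stimulated with estradiol; nearly all actives have a fitted effect of over 55% in size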
# setup-conditions: ER-beta-UAS-bla HEK293T viability, CellTiter-Glo luminescence, 16 h; series mostly up to 92.4 µM
Inconclusive results are not listed. Activity calls are given as the source filed them. The call rests on the fitted dose curve; in most records, active means well fitted cell-killing curve with a large enough effect in the repeat runs; inconclusive means weak or mixed curves; inactive means flat fitted curve, though single readings scatter.
Outcome field: choose from active, inactive

Given CC(C)(C)c1ccc(C(=O)O)cc1 , state the outcome it received in this test.
inactive

Assay outcome for Cc1cc2c(cc1C(F)(F)F)N(C(=O)Nc1ccc(Oc3cccnc3C)nc1)CC2 : what was it?
inactive

* * *

# assay-info: qHTS assay to identify small molecule agonists of the estrogen receptor alpha (ER-alpha) signaling pathway in the presence of an antagonist - cell viability counter screen (AID 1259386);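 also: cells exposed to compounds for 22 h at 37 °C before the viability read; nearly all actives have a fitted effect of over 30% in size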
# setup-conditions: VM7Luc4E2 viability, CellTiter-Fluor fluorescence, 22 h; series mostly up to 92.4 µM
Records with an inconclusive call do not appear. Activity calls are given as the source filed them. Calls come from the whole dose curve; as a rule, active = well fitted cell-killing curve with a large enough effect in the repeat runs; inconclusive = weak or mixed curves, or effect the other way; inactive = no such curve, though single readings can be large or run the other way.
One label from this list, please: active, inactive

Oc1ccc(Cl)cc1Sc1cc(Cl)ccc1O; active
C=CC(=O)OCC(CO)(COCC(COC(=O)C=C)(COC(=O)C=C)COC(=O)C=C)COC(=O)C=C; active

Could you please tell me the result logged for CCc1cc(Cc2cc(CC)cc(C(C)(C)C)c2O)c(O)c(C(C)(C)C)c1 in this assay?
active

Dear all, I need the recorded test outcome for Cn1cc(C(=O)[C@@H]2CCc3nc[nH]c3C2)c2ccccc21 , thank you.
inactive

GET /call?item= Nc1c2ccccc2nc2ccccc12 returns the recorded outcome of this test.
inactive

* * *

# assay-system: Nuclear receptor subfamily 1 group I member 2 (Homo sapiens)
# assay-info: Human pregnane X receptor (PXR) small molecule agonists, qHTS assay (AID 1346982); also: nearly all actives have a fitted effect of over 35% in size
# setup-conditions: PXR-Luc HepG2, CYP3A4 luciferase reporter, 24 h; series mostly up to 92.4 µM
Records with an inconclusive call do not appear. Active and inactive are the calls of the source. Calls follow the shape of the dose curve; as a rule, active = well fitted activation curve with a large enough effect in the repeat runs; inconclusive = weak or mixed curves; inactive = no such curve, though single readings can be large or run the other way.
Pick from 1 (yes) (active), 0 (no) (inactive) when you respond.

Worked examples, 5 compounds total:
CCCCCCCCOc1ccccc1C(=O)Nc1ccc(C(=O)OCC[N+](C)(CC)CC)cc1; 0 (no)
CC[C@H]1O[C@]2(CC[C@@H]1C)C[C@@H]1C[C@@H](C/C=C(\C)C[C@@H](C)/C=C/C=C3\CO[C@@H]4[C@H](O)C(C)=C[C@@H](C(=O)O1)[C@]34O)O2; 1 (yes)
O=C1C=CC(=O)N1; 0 (no)
O=[N+]([O-])c1ccccc1Nc1ccccc1; 1 (yes)
CCCCCCCCCCCCCCCCCC[N+](C)(C)C; 0 (no)

Write down the call the test reported for this compound. Item: CN(C)c1ccc(C2(c3ccc(N(C)C)cc3)OC(=O)c3cc(N(C)C)ccc32)cc1
0 (no)

Check the results log: what was the call for Cc1cccc(S(=O)(=O)O)c1C ?
0 (no)

In this assay, the call recorded for Oc1ccc(Cl)cc1Sc1cc(Cl)ccc1O was what?
1 (yes)

Name the outcome recorded for COc1c(C)c2c(c(O)c1C/C=C(\C)CCC(=O)O)C(=O)OC2 in the assay.
0 (no)

How did this test come out for CCCCCCCCCCC=O ?
0 (no)

Short answer needed: outcome of this test for CSc1ccc(/C=C2/C(C)=C(CC(=O)O)c3cc(F)ccc32)cc1 ?
0 (no)

Could you kindly confirm the outcome this assay logged for CCCCN1C(=O)[C@@H]([C@H](O)C2CCCCC2)NC(=O)C12CCN(Cc1ccc(Oc3ccc(C(=O)O)cc3)cc1)CC2 ?
0 (no)

Could you kindly confirm the outcome this assay logged for Cc1cc(O)c(C(C)(C)C)cc1Sc1cc(C(C)(C)C)c(O)cc1C ?
1 (yes)

Entry O=C(O)c1cc(O)c2c(c1)C(=O)c1cccc(O)c1C2=O : call = ?
0 (no)

Assay result, entry CC(C)CCCCCCCCCCCCCCC(=O)O — outcome?
0 (no)

Write down the call the test reported for this compound. Item: CC[C@H](c1ccc(O)cc1)[C@@H](CC)c1ccc(O)cc1
1 (yes)
